studySystem: T1, recombinant FAP protein (BioLegend), biotinylated (Homo sapiens (Human), UniProt Q12884 26-760, Biotinylated (sites not given) for loading on streptavidin sensors. Any vendor tag is not stated in the passages shown.)
T1 construct: Loaded on streptavidin sensors for BLI; also called biotinylated FAP
T1 sequence: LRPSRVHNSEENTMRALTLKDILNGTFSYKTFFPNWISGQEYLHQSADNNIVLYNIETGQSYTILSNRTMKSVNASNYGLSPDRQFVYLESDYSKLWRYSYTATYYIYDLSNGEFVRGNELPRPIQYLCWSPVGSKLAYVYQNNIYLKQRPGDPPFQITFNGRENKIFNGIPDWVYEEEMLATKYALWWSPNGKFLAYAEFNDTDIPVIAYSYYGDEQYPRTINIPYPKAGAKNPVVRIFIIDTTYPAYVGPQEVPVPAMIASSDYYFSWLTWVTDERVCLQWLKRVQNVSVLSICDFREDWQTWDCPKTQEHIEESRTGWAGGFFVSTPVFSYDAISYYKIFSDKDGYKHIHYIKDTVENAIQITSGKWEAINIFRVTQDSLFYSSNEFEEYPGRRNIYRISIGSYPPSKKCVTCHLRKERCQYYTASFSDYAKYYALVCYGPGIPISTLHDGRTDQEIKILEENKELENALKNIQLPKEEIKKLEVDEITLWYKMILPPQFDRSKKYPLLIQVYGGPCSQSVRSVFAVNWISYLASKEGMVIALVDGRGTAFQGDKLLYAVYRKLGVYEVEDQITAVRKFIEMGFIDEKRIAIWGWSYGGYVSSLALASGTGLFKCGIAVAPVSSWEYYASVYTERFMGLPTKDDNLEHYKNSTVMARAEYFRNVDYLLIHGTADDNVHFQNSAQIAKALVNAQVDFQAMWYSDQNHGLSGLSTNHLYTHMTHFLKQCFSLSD
runDescription: BLI (Octet RED96), biotinylated FAP on streptavidin sensors
Can you tell me Kd for the items I'm about to list?
Numbers only, in nM.

[[record]]
binder = "P-1921: 2PE14_N32W (VHH, also called pET28 PelB-2PE14_N32W) VHH: QVQLQESGGGLVQPGGSLRLSCAASGSTFSIWAVAWYRQAPGKRRELVAGISGGGVTNYPDSVKGRFTISRDNAKNTVYLQMSSLKPEDTAVYYCNLWPPRASPGGRVYWGQGTQVTVSS"
parameter = "Kd"
measvalue = 0.221

[[record]]
binder = "P-1914: 2PE14_N32L (VHH, also called pET28 PelB-2PE14_N32L) VHH: QVQLQESGGGLVQPGGSLRLSCAASGSTFSILAVAWYRQAPGKRRELVAGISGGGVTNYPDSVKGRFTISRDNAKNTVYLQMSSLKPEDTAVYYCNLWPPRASPGGRVYWGQGTQVTVSS"
parameter = "Kd"
measvalue = 1.25

[[record]]
binder = "P-1931: 3PE42_M31K (VHH, also called pET28 PelB-3PE42_M42K) VHH: QVQLQESGGGLVQPGESLRLSCAVSGSTSSKNAMAWYRQAPGKRRELVAGISGGGATNYPDSVKGRFTISRDNAKNTVYLQMSSLKPEDTAVYYCNLWPPRASPGGGVYWGQGTQVTVSS"
parameter = "Kd"
measvalue = 0.851


In plain terms, P-1941: 3PE42_M31Y (VHH, also called pET28 PelB-3PE42_M42Y) VHH: QVQLQESGGGLVQPGESLRLSCAVSGSTSSYNAMAWYRQAPGKRRELVAGISGGGATNYPDSVKGRFTISRDNAKNTVYLQMSSLKPEDTAVYYCNLWPPRASPGGGVYWGQGTQVTVSS has a documented Kd of 1.12
